Several reports have described pIC50 for Histone-lysine N-methyltransferase EHMT2 (Homo sapiens, UniProt Q96KQ7); a selection of those results is presented here.
pIC50: −log10 of the molar value.
Classification field: Met = pIC50 at or over 8; Not met = pIC50 under 8.

MOLECULE | CLASS_NAME
CC(C)(C)c1ccc(NC(=O)NCCC[C@H](CN)C[C@H]2O[C@@H](n3cnc4c(N)ncnc43)[C@@H](O)C2O)cc1 (stereo partly shown) | Not met
COc1cc2c(NC(C)C)c3c(nc2cc1OCCCN1CCCC1)CC(C)(C)C3 | Not met
COc1cc2c(NCCCOC(C)C)c3c(nc2cc1OCCCN1CCCC1)CCC3 | Not met
COc1cc2c(cc1OCCCn1ccnc1)N=C(N)C21CCC1 | Not met

Say whether COc1cc2c(NC3CCCNC3)c3c(nc2cc1OCCCN(C)C)CCC3 (stereo not shown) shows pIC50 of 8 or more.
Met

Say whether COc1cc2c(cc1OCCCN1CCCC1)[nH]c1ccnc(N3CCCC3)c12 shows pIC50 of 8 or more.
Met

Say whether CNc1c2c(nc3cc(OCCCN4C5CCC4CC5)c(OC)cc13)CCC2 shows pIC50 of 8 or more.
Not met
